Value source: the supplement of paper PMC12855868

B1: library; numbered along this chain (parent)
chain: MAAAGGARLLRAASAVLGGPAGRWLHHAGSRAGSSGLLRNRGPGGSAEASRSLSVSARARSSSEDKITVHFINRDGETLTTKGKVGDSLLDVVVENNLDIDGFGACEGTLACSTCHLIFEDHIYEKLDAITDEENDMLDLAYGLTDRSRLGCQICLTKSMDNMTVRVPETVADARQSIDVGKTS

variants of: B1; assay: scaled log2 fold change in cell abundance, elesclomol vs control (0 = silent mean, 1 = nonsense mean) (scaled log2 ratio); higher = higher viability under elesclomol (loss of FDX1 cuproptosis function); conditions: with HEK293T FDX1 KO; elesclomol 40 nM; glucose 10 mM; 11 days;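 further: variant abundance is its share of total variant reads in each endpoint sample, from next-generation sequencing of the integrated ORF PCR-amplified out of genomic DNA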
Decide by scaled log2 fold change: equal to or exceeding 0.01 means Met, less means Not met.

1) V16S : Not met
2) G29S : Not met
3) V92A : Not met
4) Y124C : Not met
5) L53T : Not met
6) G181K : Not met
7) L10F : Not met
8) A57R : Met
9) V171K : Not met
10) R166G : Not met
11) G36Q : Met
12) N162D : Met
13) R175Q : Not met
14) I100S : Met
15) G18A : Met
16) V171M : Met
17) D132Y : Met
18) A111C : Met
19) R60M : Met
20) L37Q : Not met
21) D132A : Not met
22) A59Y : Not met
